test system: Plasmodium berghei; assay: Screen against P. berghei liver stage (PbLuc), transformed with Luciferase, at 10uM; type: functional, HepG2; details: tested at 10 uM
The whole screen tested about 69,000 compounds, of which about 8,600 (12%) showed an effect of 50% or more. The full list was thinned out, with strong results kept by preference.
Could you please report measured INHIBITION for the items listed next?
Express the reported value numerically, then name its unit.

**Query** Quickly give me recorded INHIBITION for CC(=O)N[C@@H]1CN(C(=O)c2csc(C(C)C)n2)C[C@H]1C(C)C
**Result** 9.87%

**Query** Quickly give me recorded INHIBITION for CN(Cc1ccc(-n2cccn2)cc1)CC1CCCN1c1cccnn1 (stereo unspecified)
**Result** 9.64%

**Query** Quickly give me recorded INHIBITION for CCN1CCCC(O)(c2nc(C)c(CCOc3ccccc3Cl)s2)CC1 (stereo unspecified)
**Result** 28%

**Query** Quickly give me recorded INHIBITION for CC(=O)N1C[C@H](NC(=O)c2csc(C(C)C)c2)[C@@H](C(C)C)C1
**Result** 51.1%

**Query** Quickly give me recorded INHIBITION for Cc1ccc(CN2CCC3(CCC(=O)N3CC(=O)N(C)C)CC2)s1
**Result** -29.5%

**Query** Quickly give me recorded INHIBITION for Cc1nc(C)n(CC2CCCN2c2ncnc3sc(C)c(C)c23)n1 (stereo unspecified)
**Result** -11.6%

**Query** Quickly give me recorded INHIBITION for Cc1nc(C2(O)CCCNCC2)sc1CCOc1ccccc1F (stereo unspecified)
**Result** 0.301%

**Query** Quickly give me recorded INHIBITION for CN(Cc1ccc(-n2cccn2)cc1)C[C@@H]1CCCN2CCCC[C@H]12
**Result** 70%

**Query** Quickly give me recorded INHIBITION for Cc1nn(C)c(N(C)C)c1CNCc1cccnc1N1CCOCC1
**Result** -69.3%

**Query** Quickly give me recorded INHIBITION for CCCn1nnnc1COc1cc(OC)ccc1C(N)=O
**Result** -15%

**Query** Quickly give me recorded INHIBITION for Cc1nc(N2CCCC2)nc2c1CN(C(=O)N(C)C)CC2
**Result** 37.1%

**Query** Quickly give me recorded INHIBITION for c1cc2c(cc1CN1CCN(Cc3noc(C4CC4)n3)CC1)OCO2
**Result** -28%

**Query** Quickly give me recorded INHIBITION for Cc1nc(C2(O)CCCNCC2)sc1CCOc1ccccc1 (stereo unspecified)
**Result** 49.6%

**Query** Quickly give me recorded INHIBITION for CN(Cc1nc2ccsc2c(=O)[nH]1)CC1CCCCC1
**Result** -21.8%

**Query** Quickly give me recorded INHIBITION for c1cc2c(cc1CSCc1noc(C3CC3)n1)OCCO2
**Result** 74.3%

**Query** Quickly give me recorded INHIBITION for CN(Cc1nc2ccccc2c(=O)[nH]1)C[C@@H]1CCCN2CCCC[C@H]12
**Result** 42.6%

**Query** Quickly give me recorded INHIBITION for COc1ccc(C2=NOC(C(=O)N3CCCc4ccccc43)C2)cc1 (stereo unspecified)
**Result** -20.6%

**Query** Quickly give me recorded INHIBITION for CN(C)C(CNC(=O)c1ccnc(-n2cncn2)c1)c1ccccc1 (stereo unspecified)
**Result** 9.34%

**Query** Quickly give me recorded INHIBITION for COCCNC(=O)c1cc(-c2cc[nH]n2)n2ccccc12
**Result** -22.5%

**Query** Quickly give me recorded INHIBITION for CC(C)(C)n1cc(NCc2cscn2)cn1
**Result** 29.4%

**Query** Quickly give me recorded INHIBITION for CCN1CCCC(O)(c2nc(C)c(CCOc3ccc(F)cc3)s2)CC1 (stereo unspecified)
**Result** 59.3%

**Query** Quickly give me recorded INHIBITION for COc1ccc(NC(=O)COc2nn(C)c3nc(C)cc(C)c23)cn1
**Result** 22.8%

**Query** Quickly give me recorded INHIBITION for CCN1CCCC(O)(c2nc(C)c(CCOc3ccccc3F)s2)CC1 (stereo unspecified)
**Result** 7.52%

**Query** Quickly give me recorded INHIBITION for CN1C(=O)CO[C@H]2CN(C(=O)c3ccc4c(c3)CCCC4)C[C@@H]21
**Result** -3%

**Query** Quickly give me recorded INHIBITION for Cc1nc(C2(O)CCCNCC2)sc1CCOc1ccc(F)cc1 (stereo unspecified)
**Result** 47.2%

**Query** Quickly give me recorded INHIBITION for CC(C)c1nnc(NC(=O)CCc2cc(F)ccc2F)[nH]1
**Result** 53.3%

**Query** Quickly give me recorded INHIBITION for Cc1nc(C2(O)CCCNCC2)sc1CCOc1ccc(F)c(F)c1 (stereo unspecified)
**Result** 46%

**Query** Quickly give me recorded INHIBITION for CC(C)NC(=O)N1CC[C@@H]2[C@@H]1CC(=O)N2Cc1cccnc1
**Result** 6.27%

**Query** Quickly give me recorded INHIBITION for COC[C@@]12CCO[C@@H]1CCN(Cc1ccccc1OC)C2
**Result** 51.2%

**Query** Quickly give me recorded INHIBITION for O=C(c1cocn1)N1CCC2(CC1)COC(COCc1ccccn1)C2 (stereo unspecified)
**Result** 8.03%

**Query** Quickly give me recorded INHIBITION for COC(=O)c1cc(OCC2CCC2)cc(C(=O)N[C@@H]2CNCC[C@H]2O)c1
**Result** 11.9%

**Query** Quickly give me recorded INHIBITION for CC(Nc1ncnc2c1NC(=O)CN2)c1ccc2c(c1)OCO2 (stereo unspecified)
**Result** 48.2%

**Query** Quickly give me recorded INHIBITION for NC(=O)c1cc(C2CCCN(CCCOc3ccc(F)cc3)C2)n[nH]1 (stereo unspecified)
**Result** 14.22%

**Query** Quickly give me recorded INHIBITION for CS(=O)(=O)c1nnc(NC(=O)CCc2cc(F)ccc2F)[nH]1
**Result** 43.7%

**Query** Quickly give me recorded INHIBITION for COC[C@@H]1CCC[C@@]12CN(Cc1ccc(C)s1)CCO2
**Result** 14.1%

**Query** Quickly give me recorded INHIBITION for CC(C)c1nnc(NC(=O)Cc2ccc(F)cc2)[nH]1
**Result** 51.1%

**Query** Quickly give me recorded INHIBITION for c1cc(-c2cnc(NC3CC3)nc2[C@H]2CCCO2)ccn1
**Result** -12.3%

**Query** Quickly give me recorded INHIBITION for Cc1cc(NC(=O)C(C)Nc2cccc(COCc3ccco3)c2)on1 (stereo unspecified)
**Result** 39.5%

**Query** Quickly give me recorded INHIBITION for CN(C)C(=O)N1C[C@H]2CC[C@@H](C1)N(Cc1nnc(-c3ccccc3)o1)C2
**Result** -3.73%

**Query** Quickly give me recorded INHIBITION for COC[C@@]12CCO[C@@H]1CCN(Cc1sccc1C)C2
**Result** 34%

**Query** Quickly give me recorded INHIBITION for COC(=O)c1cc(OCC2CCC2)cc(C(=O)NC2CCC(O)CC2)c1 (stereo unspecified)
**Result** 7.12%

**Query** Quickly give me recorded INHIBITION for CCNc1nc2cn(-c3ccc(OC(F)(F)F)cc3)c(=O)c-2c[nH]1
**Result** 45.6%

**Query** Quickly give me recorded INHIBITION for Cc1nn(C)cc1S(=O)(=O)N[C@@H]1CCC[C@@H](n2ccnc2)[C@@H]1O
**Result** 7.19%

**Query** Quickly give me recorded INHIBITION for CN(Cc1nc2ccsc2c(=O)[nH]1)C[C@@H]1CCCN2CCCC[C@H]12
**Result** 68.4%

**Query** Quickly give me recorded INHIBITION for COC(=O)c1cc(OCC2CCC2)cc(C(=O)N[C@@H]2CCCNC2)c1
**Result** 58.4%

**Query** Quickly give me recorded INHIBITION for COc1ccc(OCc2sc(C3(O)CCCNCC3)nc2C)cc1 (stereo unspecified)
**Result** 31.3%
